Test system: Aspergillus niger
Assay: Antifungal activity against Aspergillus niger at 200 ug/ml after 48 to 72 hr by agar diffusion cup-plate method
Type: functional
Details: read-out: DIZ
# zone of inhibition at 200 µg/mL >= 20 mm gives Criterion met, anything below gives Criterion not met

Example entries begin here.
| molecule | answer label |
| --- | --- |
| O=[N+]([O-])c1ccc(NNC(=S)Nc2ccccc2)c([N+](=O)[O-])c1 | Criterion not met |
| CC(=O)N1C(=O)CC(=O)N1c1ccc([N+](=O)[O-])cc1[N+](=O)[O-] | Criterion met |
| O=C1CC(=O)N(c2ccc([N+](=O)[O-])cc2[N+](=O)[O-])N1 | Criterion not met |

Kindly determine if zone of inhibition at 200 µg/mL recorded for `O=C1CS/C(=N/c2ccccc2)N1Nc1ccc([N+](=O)[O-])cc1[N+](=O)[O-]` is above or exactly 20 mm.
Criterion not met

Could you tell me if the measured zone of inhibition at 200 µg/mL of Clc1ccccc1C(c1ccccc1)(c1ccccc1)n1ccnc1 [CLOTRIMAZOLE] reaches 20 mm or more?
Criterion met

Item `NC1=NN(c2ccc([N+](=O)[O-])cc2[N+](=O)[O-])C(=O)C1` with zone of inhibition at 200 µg/mL of 20 mm or above?
Criterion not met

For this molecule, is measured zone of inhibition at 200 µg/mL 20 mm or higher? `O=C1CC(CCl)=NN1c1ccc([N+](=O)[O-])cc1[N+](=O)[O-]`
Criterion met

Tell me whether zone of inhibition at 200 µg/mL is at least 20 mm here: `Cc1cc(C)n(-c2ccc([N+](=O)[O-])cc2[N+](=O)[O-])n1`
Criterion met

Exam item: decide whether the reported zone of inhibition at 200 µg/mL for `CC1=NN(c2ccc([N+](=O)[O-])cc2[N+](=O)[O-])C(=O)C1` is at least 20 mm.
Criterion not met

----------
Test system: Escherichia coli
Experiment: Antibacterial activity against Escherichia coli at 200 ug/ml after 24 hr by agar diffusion cup-plate method
Assay type: functional
Settings: read-out: DIZ
recorded endpoint: zone of inhibition at 200 µg/mL
Output should be the measured figure followed by the unit it is expressed in.

Here's what some known entries look like.
| compound | zone of inhibition at 200 µg/mL |
| --- | --- |
| CC(=O)N1C(=O)CC(=O)N1c1ccc([N+](=O)[O-])cc1[N+](=O)[O-] | 30.6 mm |
| O=C1CC(CCl)=NN1c1ccc([N+](=O)[O-])cc1[N+](=O)[O-] | 30.4 mm |
| NC1=NN(c2ccc([N+](=O)[O-])cc2[N+](=O)[O-])C(=O)C1 | 20.6 mm |
| Cc1cc(C)n(-c2ccc([N+](=O)[O-])cc2[N+](=O)[O-])n1 | 28.5 mm |
| CCn1cc(C(=O)O)c(=O)c2cc(F)c(N3CCNCC3)cc21 [NORFLOXACIN] | 35.5 mm |

Give the reported zone of inhibition at 200 µg/mL for `CC1=NN(c2ccc([N+](=O)[O-])cc2[N+](=O)[O-])C(=O)C1` (system: Escherichia coli).
20.4 mm

Form entry - test system: Escherichia coli; read-out: zone of inhibition at 200 µg/mL; compound: `O=[N+]([O-])c1ccc(NNC(=S)Nc2ccccc2)c([N+](=O)[O-])c1`
18.6 mm

Notebook entry, Escherichia coli assay: zone of inhibition at 200 µg/mL of `O=C1CS/C(=N/c2ccccc2)N1Nc1ccc([N+](=O)[O-])cc1[N+](=O)[O-]` = ?
30.1 mm

API: value(readout=zone of inhibition at 200 µg/mL, system=Escherichia coli) for record `O=C1CC(=O)N(c2ccc([N+](=O)[O-])cc2[N+](=O)[O-])N1`
20.2 mm
